test: Peptide stability in human serum; type: in vitro ADME; settings: 90% (vol/vol) human serum, 37 °C, C18 RP-UPLC with PDA detector, read-out: peptide remaining intact
Where a SMILES comes first, the peptide text is derived from it. Bridges are numbered along the chain shown (N, C = ends).
measuredParameter: remaining at 48 h, 100 µg/ml

Lab book: remaining at 48 h, 100 µg/ml of CC[C@H](C)[C@@H]1NC(=O)[C@@H]2CSSC[C@H](NC(=O)[C@H]([C@@H](C)CC)NC(=O)[C@@H]3CSSC[C@H](NC1=O)C(=O)N[C@@H](C(C)C)C(=O)NCC(=O)N[C@@H](CCCNC(=N)N)C(=O)NCC(=O)N3)C(=O)N[C@@H](C(C)C)C(=O)N[C@@H](CCCNC(=N)N)C(=O)N[C@@H](CCCNC(=N)N)C(=O)N[C@@H](CCCNC(=N)N)C(=O)N2 [MTD12813] (cyclo(CICVGRGCICVRRR); disulfide 1-10, 3-8) noted as > 95%

###

assay: Peptide stability with log-phase Kp-1705 (bacterial proteases); assay type: in vitro ADME, K. pneumoniae; conditions: suspension of log-phase Kp-1705 bacteria, log-phase Kp-1705 (5 × 10^7 CFU/ml), 50 mM HEPES pH 7.4, 37 °C, LC–MS/MS, read-out: MTD12813 found intact
Where a SMILES comes first, the peptide text is derived from it. Bridges are numbered along the chain shown (N, C = ends).
measuredParameter: remaining at 24 h, 1.25 µg/ml
I'd appreciate it if you included the unit after the number.

Lab book: remaining at 24 h, 1.25 µg/ml of CC[C@H](C)[C@@H]1NC(=O)[C@@H]2CSSC[C@H](NC(=O)[C@H]([C@@H](C)CC)NC(=O)[C@@H]3CSSC[C@H](NC1=O)C(=O)N[C@@H](C(C)C)C(=O)NCC(=O)N[C@@H](CCCNC(=N)N)C(=O)NCC(=O)N3)C(=O)N[C@@H](C(C)C)C(=O)N[C@@H](CCCNC(=N)N)C(=O)N[C@@H](CCCNC(=N)N)C(=O)N[C@@H](CCCNC(=N)N)C(=O)N2 [MTD12813] (cyclo(CICVGRGCICVRRR); disulfide 1-10, 3-8) noted as 72.4%

###

assay: Peptide stability with log-phase E. coli ATCC-BAA-2340 (bacterial proteases); format: in vitro ADME; details: suspension of log-phase E. coli ATCC-BAA-2340 bacteria, log-phase E. coli ATCC-BAA-2340, 50 mM HEPES, 37 °C, LC–MS/MS, read-out: MTD12813 found intact
Where a SMILES comes first, the peptide text is derived from it. Bridges are numbered along the chain shown (N, C = ends).
measuredParameter: remaining at 24 h, 1.25 µg/ml (%)
Numbers only, in %.

Lab book: remaining at 24 h, 1.25 µg/ml of CC[C@H](C)[C@@H]1NC(=O)[C@@H]2CSSC[C@H](NC(=O)[C@H]([C@@H](C)CC)NC(=O)[C@@H]3CSSC[C@H](NC1=O)C(=O)N[C@@H](C(C)C)C(=O)NCC(=O)N[C@@H](CCCNC(=N)N)C(=O)NCC(=O)N3)C(=O)N[C@@H](C(C)C)C(=O)N[C@@H](CCCNC(=N)N)C(=O)N[C@@H](CCCNC(=N)N)C(=O)N[C@@H](CCCNC(=N)N)C(=O)N2 [MTD12813] (cyclo(CICVGRGCICVRRR); disulfide 1-10, 3-8) noted as 81.3
